# measurement-protocol: amyloid nucleation score (Sup35N fusion, yeast selection) (log enrichment); library NNK2; higher = more nucleation; inactive = no reads after selection;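 further: zero at mode of non-aggregating sequences after 7 days selection at 30°C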

>  <sequence-data>
IIILYCGRYLINWTFLSCAY

>  <amyloid nucleation score>
inactive

$$$$
>  <sequence-data>
MDGIGTFNLSENR

>  <amyloid nucleation score>
inactive

$$$$
>  <sequence-data>
LLYQLRNMVILEHFMMIDFM

>  <amyloid nucleation score>
inactive

$$$$

----------
# measurement-protocol: amyloid nucleation score (Sup35N fusion, yeast selection) (log enrichment); library NNK1; higher = more nucleation; inactive = no reads after selection
# if value of amyloid nucleation score reaches 0.3, tag rule met; if it stays below, tag rule not met

>  <sequence-data>
SRAWWVKEFRGVKEVIQVRF

>  <class-assignment>
rule met

$$$$
>  <sequence-data>
DEDNFVRSHVNPLYLTSADD

>  <class-assignment>
rule met

$$$$
>  <sequence-data>
GVGLDCFDRTWFWMFQTPQC

>  <class-assignment>
rule met

$$$$
>  <sequence-data>
AACGWHRLICNKFSQFTRGP

>  <class-assignment>
rule not met

$$$$
>  <sequence-data>
EVDRWGICCPYW

>  <class-assignment>
rule met

$$$$
>  <sequence-data>
YHLERKGPAFVNFLTMGSCR

>  <class-assignment>
rule not met

$$$$
>  <sequence-data>
YVSAGRCKYDDLPTRV

>  <class-assignment>
rule not met

$$$$
>  <sequence-data>
LQLTYPPLVVPSSRWCLLLS

>  <class-assignment>
rule not met

$$$$
>  <sequence-data>
KYRDLGSFMQSWAARHGTLL

>  <class-assignment>
rule not met

$$$$
>  <sequence-data>
KLWFVGSLYSGNVQVYVVVP

>  <class-assignment>
rule met

$$$$
>  <sequence-data>
WDRASYIEYRSFIEWRRLPK

>  <class-assignment>
rule not met

$$$$
>  <sequence-data>
RVSRLPFDECSFLLVTVEGI

>  <class-assignment>
rule met

$$$$
>  <sequence-data>
YKAERVKSVRTITPRVTLLW

>  <class-assignment>
rule not met

$$$$
>  <sequence-data>
SLHSDVRHRRVVYVVREIAY

>  <class-assignment>
rule not met

$$$$

----------
# measurement-protocol: amyloid nucleation score (Sup35N fusion, yeast selection) (log enrichment); library NNK1; higher = more nucleation; inactive = no reads after selection
# if value of amyloid nucleation score reaches 2, tag Yes; if it stays below, tag No

>  <sequence-data>
SNVICRGR

>  <class-assignment>
No

$$$$
>  <sequence-data>
LFSIGALY

>  <class-assignment>
No

$$$$
>  <sequence-data>
YNLWIGLCRIMEEVILGGT

>  <class-assignment>
No

$$$$
>  <sequence-data>
FMLERYFQ

>  <class-assignment>
No

$$$$
>  <sequence-data>
RTMLMLMTSVLGGQGK

>  <class-assignment>
Yes

$$$$
>  <sequence-data>
FGREPIRIKTYQSLKNRSLI

>  <class-assignment>
No

$$$$
>  <sequence-data>
GAICQGLINDVVGRGDGMMR

>  <class-assignment>
No

$$$$
>  <sequence-data>
CLAGLYNCGGR

>  <class-assignment>
No

$$$$
>  <sequence-data>
SFDADFSFRVRVFYDQSISI

>  <class-assignment>
No

$$$$
>  <sequence-data>
LRSMCSCHVRPIYPFCGHY

>  <class-assignment>
No

$$$$
>  <sequence-data>
SPWFAHITPRVIMEERH

>  <class-assignment>
No

$$$$
>  <sequence-data>
RRGTSFLQIYLACSHVQTSH

>  <class-assignment>
Yes

$$$$
>  <sequence-data>
SATASNGRMAGSVSSWRKRW

>  <class-assignment>
No

$$$$
>  <sequence-data>
RPKCWWVIGCIKRKSMSIGR

>  <class-assignment>
Yes

$$$$
>  <sequence-data>
ITCLRSCLLFNFSGCTTSDQ

>  <class-assignment>
Yes

$$$$
>  <sequence-data>
ECSGVNLNTSYLPGVQEATM

>  <class-assignment>
No

$$$$
>  <sequence-data>
QNWMPRHLTITLNDIRLYL

>  <class-assignment>
Yes

$$$$
>  <sequence-data>
HQLGQYHTACHAPSARCTPL

>  <class-assignment>
No

$$$$
>  <sequence-data>
CSLSRVNHDLMVKDSSKEQR

>  <class-assignment>
Yes

$$$$
>  <sequence-data>
LLMPDSNG

>  <class-assignment>
No

$$$$
>  <sequence-data>
YKLFGFFGRHPVNWYV

>  <class-assignment>
No

$$$$

----------
# measurement-protocol: amyloid nucleation score (Sup35N fusion, yeast selection) (log enrichment); library NNK2; higher = more nucleation; inactive = no reads after selection
# if value of amyloid nucleation score reaches 0.4, tag label 1; if it stays below, tag label 0

>  <sequence-data>
YQDWGSSTLLIVIKSWAGET

>  <class-assignment>
label 0

$$$$
>  <sequence-data>
SRGWTRMRSYVVSSDFILLK

>  <class-assignment>
label 0

$$$$
>  <sequence-data>
NEIARILEVRIGVEGYGGIF

>  <class-assignment>
label 0

$$$$
>  <sequence-data>
ICRNGLSL

>  <class-assignment>
label 0

$$$$
>  <sequence-data>
ESMGGEYQGGVFVG

>  <class-assignment>
label 1

$$$$

----------
# measurement-protocol: amyloid nucleation score (Sup35N fusion, yeast selection) (log enrichment); library NNK2; higher = more nucleation; inactive = no reads after selection

>  <substance>
VWWFPRLPIPKESVIINGLS

>  <amyloid nucleation score>
inactive

$$$$
>  <substance>
QRVSRYNLLRARPGKIAEHF

>  <amyloid nucleation score>
inactive

$$$$
>  <substance>
KTNVMERCHFQRILCFGMW

>  <amyloid nucleation score>
inactive

$$$$
>  <substance>
AGLRGIHEIGLLDAKWDDNH

>  <amyloid nucleation score>
inactive

$$$$
>  <substance>
FDLNVVDIFTLCMRKRYTME

>  <amyloid nucleation score>
inactive

$$$$
>  <substance>
SLSGVV

>  <amyloid nucleation score>
inactive

$$$$

----------
# measurement-protocol: amyloid nucleation score (Sup35N fusion, yeast selection) (log enrichment); library NNK2; higher = more nucleation; inactive = no reads after selection

>  <substance>
FECKCKVYTPAWGCHQYLIL

>  <amyloid nucleation score>
inactive

$$$$
>  <substance>
NYDGCRWWW

>  <amyloid nucleation score>
inactive

$$$$
>  <substance>
CYIFYS

>  <amyloid nucleation score>
inactive

$$$$

----------
# measurement-protocol: amyloid nucleation score (Sup35N fusion, yeast selection) (log enrichment); library NNK3; higher = more nucleation; inactive = no reads after selection
endpoint: amyloid nucleation score

>  <substance>
MGNAEEIAIHDSSAWVVVAR

>  <endpoint>
amyloid nucleation score

>  <measurement>
inactive

$$$$
>  <substance>
KCGFYRTVFCSRVCVRS

>  <endpoint>
amyloid nucleation score

>  <measurement>
inactive

$$$$
>  <substance>
WMYRKTSNRICCLPRESVNP

>  <endpoint>
amyloid nucleation score

>  <measurement>
inactive

$$$$
>  <substance>
SVVVVSWTTMLNDKLDPLDG

>  <endpoint>
amyloid nucleation score

>  <measurement>
inactive

$$$$
>  <substance>
LFFYNWVICRSNRYHGL

>  <endpoint>
amyloid nucleation score

>  <measurement>
inactive

$$$$
>  <substance>
PVTIFKETCWP

>  <endpoint>
amyloid nucleation score

>  <measurement>
inactive

$$$$
>  <substance>
GDQFQAMHVWNLPDVDYYVH

>  <endpoint>
amyloid nucleation score

>  <measurement>
inactive

$$$$
>  <substance>
DGEASTRVSCGDDIFRKTSS

>  <endpoint>
amyloid nucleation score

>  <measurement>
1.03

$$$$
>  <substance>
LGVALVTICVLRECGKILYI

>  <endpoint>
amyloid nucleation score

>  <measurement>
-0.107

$$$$
>  <substance>
VYPSTSTLNYVMLQLTPVNS

>  <endpoint>
amyloid nucleation score

>  <measurement>
inactive

$$$$
>  <substance>
DVYKNPLSEQPSRYCTE

>  <endpoint>
amyloid nucleation score

>  <measurement>
inactive

$$$$
>  <substance>
YDFYTIVNIRTLHPRLIFFM

>  <endpoint>
amyloid nucleation score

>  <measurement>
-0.195

$$$$
>  <substance>
LLLVSLELTRLNSHEWVYVI

>  <endpoint>
amyloid nucleation score

>  <measurement>
inactive

$$$$
>  <substance>
KIHRAGDYWVMSNR

>  <endpoint>
amyloid nucleation score

>  <measurement>
inactive

$$$$
>  <substance>
YACMCLCELSASYKLDTMC

>  <endpoint>
amyloid nucleation score

>  <measurement>
inactive

$$$$
>  <substance>
HSLVSLWYGSRCIILSR

>  <endpoint>
amyloid nucleation score

>  <measurement>
inactive

$$$$
>  <substance>
SVTPFPIIFN

>  <endpoint>
amyloid nucleation score

>  <measurement>
inactive

$$$$
>  <substance>
IWDGSADKFVDPHRACRLWR

>  <endpoint>
amyloid nucleation score

>  <measurement>
inactive

$$$$
>  <substance>
VRIWLNVYGVVSLGGRRLLV

>  <endpoint>
amyloid nucleation score

>  <measurement>
inactive

$$$$
>  <substance>
QIVYSLILGDPPAASVWEKS

>  <endpoint>
amyloid nucleation score

>  <measurement>
inactive

$$$$
>  <substance>
LTVLDQSCSIYYCTSLHKS

>  <endpoint>
amyloid nucleation score

>  <measurement>
1.92

$$$$
>  <substance>
GCVRGCTATWRMLCAGSKCC

>  <endpoint>
amyloid nucleation score

>  <measurement>
0.71

$$$$
>  <substance>
SKVRMVGVSKKCGLTVISVQ

>  <endpoint>
amyloid nucleation score

>  <measurement>
inactive

$$$$
>  <substance>
CPPGWRCQHKLDLTLGPDRW

>  <endpoint>
amyloid nucleation score

>  <measurement>
inactive

$$$$
>  <substance>
ACLFCLGDWEGFVSD

>  <endpoint>
amyloid nucleation score

>  <measurement>
inactive

$$$$
>  <substance>
KRLLVKVLLDVIGAYRDSSC

>  <endpoint>
amyloid nucleation score

>  <measurement>
inactive

$$$$
>  <substance>
CVMLVAVQGR

>  <endpoint>
amyloid nucleation score

>  <measurement>
inactive

$$$$
>  <substance>
PRPWRL

>  <endpoint>
amyloid nucleation score

>  <measurement>
inactive

$$$$
>  <substance>
VFMCILDWRVNSHMCLKLFH

>  <endpoint>
amyloid nucleation score

>  <measurement>
inactive

$$$$
>  <substance>
LVLMVSQGSYFTTI

>  <endpoint>
amyloid nucleation score

>  <measurement>
-0.474

$$$$
>  <substance>
SSRRSNYASSDPIWIVSLFG

>  <endpoint>
amyloid nucleation score

>  <measurement>
inactive

$$$$
>  <substance>
HVLKDARCDS

>  <endpoint>
amyloid nucleation score

>  <measurement>
0.181

$$$$
>  <substance>
NMYWSISDRFRIV

>  <endpoint>
amyloid nucleation score

>  <measurement>
0.424

$$$$
>  <substance>
FGQSLAEIRFLFIPIDKMRR

>  <endpoint>
amyloid nucleation score

>  <measurement>
inactive

$$$$
>  <substance>
VLLGTSECHSHKILQGKSAV

>  <endpoint>
amyloid nucleation score

>  <measurement>
inactive

$$$$
>  <substance>
SVNWMVSKLRSPNSQGLAIE

>  <endpoint>
amyloid nucleation score

>  <measurement>
inactive

$$$$
>  <substance>
KVNTLRVEDIWTSQAFVCMV

>  <endpoint>
amyloid nucleation score

>  <measurement>
inactive

$$$$
>  <substance>
QFTHTNIFTND

>  <endpoint>
amyloid nucleation score

>  <measurement>
inactive

$$$$
>  <substance>
PLCATFKDTNRNNTVYRSLF

>  <endpoint>
amyloid nucleation score

>  <measurement>
inactive

$$$$
>  <substance>
VCYLFWDVWVFLGEVTANT

>  <endpoint>
amyloid nucleation score

>  <measurement>
inactive

$$$$
>  <substance>
HMSVVSVFIRRMPNASSTRR

>  <endpoint>
amyloid nucleation score

>  <measurement>
0.562

$$$$
>  <substance>
PFLPAANNCVKQRCCFSGAL

>  <endpoint>
amyloid nucleation score

>  <measurement>
inactive

$$$$
>  <substance>
QDPMLTCGGRWDFTCAGEVP

>  <endpoint>
amyloid nucleation score

>  <measurement>
inactive

$$$$
>  <substance>
YTFTRV

>  <endpoint>
amyloid nucleation score

>  <measurement>
inactive

$$$$
>  <substance>
YDRAKSQRIRAQPESTSSVL

>  <endpoint>
amyloid nucleation score

>  <measurement>
0.593

$$$$
>  <substance>
TPIHRL

>  <endpoint>
amyloid nucleation score

>  <measurement>
0.451

$$$$
>  <substance>
NQVMKSNVVYYKATVNNMCF

>  <endpoint>
amyloid nucleation score

>  <measurement>
2.09

$$$$
>  <substance>
QLKHWTEIKQVLVVSREWVH

>  <endpoint>
amyloid nucleation score

>  <measurement>
-0.395

$$$$
>  <substance>
SAYVLDGYMEISQILVIWSL

>  <endpoint>
amyloid nucleation score

>  <measurement>
inactive

$$$$
>  <substance>
FWKAFRFTDSVFPIKHPNLS

>  <endpoint>
amyloid nucleation score

>  <measurement>
inactive

$$$$
>  <substance>
NASCGDNVLLYLFKMTFCLG

>  <endpoint>
amyloid nucleation score

>  <measurement>
0.139

$$$$
>  <substance>
DKEDHLSVFWAV

>  <endpoint>
amyloid nucleation score

>  <measurement>
inactive

$$$$
>  <substance>
PERWSMPYIPSDLYKCLLNQ

>  <endpoint>
amyloid nucleation score

>  <measurement>
inactive

$$$$
>  <substance>
VDRFRSQNKFVSNGMSLIRK

>  <endpoint>
amyloid nucleation score

>  <measurement>
inactive

$$$$
>  <substance>
CWFLVTMGYAGCFFSPVTQL

>  <endpoint>
amyloid nucleation score

>  <measurement>
inactive

$$$$
>  <substance>
FLVCSGSNVWTREASHGGGN

>  <endpoint>
amyloid nucleation score

>  <measurement>
-0.188

$$$$
>  <substance>
SSDYTLVEILSVLFCPVGCS

>  <endpoint>
amyloid nucleation score

>  <measurement>
inactive

$$$$
>  <substance>
VWGAHPLFGSISVARTISNW

>  <endpoint>
amyloid nucleation score

>  <measurement>
inactive

$$$$
>  <substance>
HIEFNWPVGLARSWMFCFSH

>  <endpoint>
amyloid nucleation score

>  <measurement>
inactive

$$$$
>  <substance>
LTTQSGLMAGRKKFWDAELG

>  <endpoint>
amyloid nucleation score

>  <measurement>
0.902

$$$$

Data credit: the supplement of paper PMC12042874
